Target: T1, GST-WRNIP1 (Homo sapiens, UniProt Q96S55 1-665)
T1 sequence: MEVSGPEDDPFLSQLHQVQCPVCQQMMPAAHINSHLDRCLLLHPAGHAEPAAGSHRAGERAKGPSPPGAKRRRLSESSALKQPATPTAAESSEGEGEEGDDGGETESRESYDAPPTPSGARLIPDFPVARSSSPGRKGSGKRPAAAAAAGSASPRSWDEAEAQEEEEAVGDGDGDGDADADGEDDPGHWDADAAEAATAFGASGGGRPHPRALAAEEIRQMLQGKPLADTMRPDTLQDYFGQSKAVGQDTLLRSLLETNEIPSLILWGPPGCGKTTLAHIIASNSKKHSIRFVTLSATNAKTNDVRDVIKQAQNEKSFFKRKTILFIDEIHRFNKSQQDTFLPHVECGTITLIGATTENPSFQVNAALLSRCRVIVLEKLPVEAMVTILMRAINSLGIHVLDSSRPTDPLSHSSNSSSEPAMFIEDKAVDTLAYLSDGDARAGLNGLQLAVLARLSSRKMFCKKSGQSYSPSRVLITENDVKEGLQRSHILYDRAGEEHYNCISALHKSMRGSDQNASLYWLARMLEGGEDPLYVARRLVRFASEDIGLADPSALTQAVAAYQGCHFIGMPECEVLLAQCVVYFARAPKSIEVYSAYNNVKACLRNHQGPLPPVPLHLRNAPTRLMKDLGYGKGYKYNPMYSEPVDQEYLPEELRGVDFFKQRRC
Assay: fluorescence anisotropy; 1 mM ATP; Hill n 0.66; Anisotropy: 10 nM DNA, 50 mM Tris-HCl pH 7.5, 90 mM KCl, 5 mM EDTA, with or without 1 mM ATP and 1.25 mM MgCl2, 25 C; EMSA: 50 nM DNA, 50 mM Tris-HCl pH 7.5, 150 mM KCl, 15 min 25 C, 6% native gel; DNA folded in 25 mM Tris-HCl pH 7.5, 50 mM KCl
Settings: protein: recombinant; (GST fusion); label: 5' FITC; intramolecular G4 with 3' ssDNA tail of 21 nt
property_measured: pKd
The meaning of pKd here: minus log10 of the concentration in molar units.

Exercise: Which pKd reading was recorded for the binder TGAGGGTGGGTAGGGTGGGTGCGTCTGCGGCTGGCTCGAGGC (structured_DNA) [MYC G4 ss (Myc2345)] ?
Solution: 6.74
